Assign microsomal CLint at 1 µM to each entry below.
experiment: Intrinsic clearance in monkey liver microsomes assessed per mg protein at 1 uM in presence of NADPH after 0.5 to 30 mins by LC/MS/MS method; format: ADME, Macaca mulatta; details: rhesus monkey, read-out: CLH
Answers are plain numbers, in µL/min/mg.

CN(C)C/C=C/C(=O)Nc1cc2c(Nc3ccc(F)c(Cl)c3)ncnc2cc1O[C@H]1CCOC1 24

Consider the following items and state reported microsomal CLint at 1 µM for each.
1. C=CC(=O)Nc1cc2c(Nc3ccc(F)c(Cl)c3)ncnc2cc1OCCCN1CCOCC1
2. CN(C)C/C=C(\F)C(=O)Nc1cc2c(Nc3ccc(F)c(Cl)c3)ncnc2cc1O[C@H]1CCOC1
3. COc1cc2ncnc(Nc3ccc(F)c(Cl)c3)c2cc1NC(=O)/C(F)=C/CN1CCCCC1
4. CCOc1cc2ncnc(Nc3ccc(OCc4ccccn4)c(Cl)c3)c2cc1NC(=O)/C(F)=C/CN(C)C

221
31
102
97

Fill in the blank: the reported microsomal CLint at 1 µM of COc1cc2ncnc(Nc3ccc(F)c(Cl)c3)c2cc1NC(=O)/C(F)=C/CN(C)C is ____.
128
